assay-target: T1, human IL-11 (AAH12506.1, Pro22-Leu199) (human, UniProt P20809 22-199)
T1 construct: The range Pro22-Leu199 counts on AAH12506.1; The Octet runs say only 'human IL-11'; also called hIL-11
T1 chain: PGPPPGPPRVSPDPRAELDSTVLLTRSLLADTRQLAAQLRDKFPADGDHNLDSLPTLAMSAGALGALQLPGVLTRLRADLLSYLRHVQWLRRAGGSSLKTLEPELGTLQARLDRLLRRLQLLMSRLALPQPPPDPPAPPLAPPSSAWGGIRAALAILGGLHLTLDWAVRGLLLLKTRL
protocol: BLI (Octet), antibody captured, human IL-11 in solution
Exercise: for every item that follows, state its recorded koff.
Give bare numbers, in s⁻¹.

Before answering, review these 3 worked examples.
hz8C8-VHm1-m13 + hz8C8-VLm7-m2 (antibody, human IgG1, kappa, V domains shown, human IgG1 constant regions) VH: EVQLVESGGGLVQPGGSLRLSCAASGFTFSSFGMHWVRQAPGKGLEWVAYITPGSNTIYYADTVKGRFTISRDNAKNSLYLQMNSLRAEDTAVYYCAREYYSYDEGFASWGQGTLVTVSS VL: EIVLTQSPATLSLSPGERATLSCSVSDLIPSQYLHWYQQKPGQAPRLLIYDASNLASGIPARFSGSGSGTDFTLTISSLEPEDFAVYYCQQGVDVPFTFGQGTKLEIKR :: 4.32e-05
hz8C8-VHm1 + hz8C8-VLm7-m3 (antibody, human IgG1, kappa, V domains shown, human IgG1 constant regions) VH: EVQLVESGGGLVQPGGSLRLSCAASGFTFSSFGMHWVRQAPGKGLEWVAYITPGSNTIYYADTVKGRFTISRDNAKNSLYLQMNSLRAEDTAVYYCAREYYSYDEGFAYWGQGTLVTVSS VL: EIVLTQSPATLSLSPGERATLSCSVSDLIPSQYLHWYQQKPGQAPRLLIYGASNLASGIPARFSGSGSGTDFTLTISSLEPEDFAVYYCQQGVDVPFTFGQGTKLEIKR :: 8.99e-05
hz8C8-VHm1-m3 + hz8C8-VLm7 (antibody, human IgG1, kappa, V domains shown, human IgG1 constant regions) VH: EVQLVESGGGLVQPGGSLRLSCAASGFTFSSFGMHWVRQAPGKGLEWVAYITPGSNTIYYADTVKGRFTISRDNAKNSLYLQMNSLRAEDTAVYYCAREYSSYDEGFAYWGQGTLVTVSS VL: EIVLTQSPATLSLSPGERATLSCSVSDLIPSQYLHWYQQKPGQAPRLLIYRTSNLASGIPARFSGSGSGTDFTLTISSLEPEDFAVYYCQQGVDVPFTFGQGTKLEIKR :: 0.00011

For the 2 binders below, give their koff values.
1. hz8C8-VHm1-m10 + hz8C8-VLm7-m2 (antibody, human IgG1, kappa, V domains shown, human IgG1 constant regions) VH: EVQLVESGGGLVQPGGSLRLSCAASGFTFSSFGMHWVRQAPGKGLEWVAYITPGSNTIYYADTVKGRFTISRDNAKNSLYLQMNSLRAEDTAVYYCAREYYSSDEGFAYWGQGTLVTVSS VL: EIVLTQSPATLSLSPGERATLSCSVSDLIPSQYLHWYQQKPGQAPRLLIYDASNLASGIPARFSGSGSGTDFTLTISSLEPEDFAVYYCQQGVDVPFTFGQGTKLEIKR
2. hz8C8-VHm1 + hz8C8-VLm6 (antibody, human IgG1, kappa, V domains shown, human IgG1 constant regions) VH: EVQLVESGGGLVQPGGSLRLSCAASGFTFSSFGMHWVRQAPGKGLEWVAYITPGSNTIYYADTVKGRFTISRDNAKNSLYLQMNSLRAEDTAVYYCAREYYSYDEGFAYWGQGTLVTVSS VL: EIVLTQSPATLSLSPGERATLSCSVSSLIPSKYLHWYQQKPGQAPRLLIYRTSNLASGIPARFSGSGSGTDFTLTISSLEPEDFAVYYCQQGVDVPFTFGQGTKLEIKR

0.000305
2.23e-05

All figures here come from patent US20250197488A1.
